MEASUREMENT NAME: IC50 (nM)
Answer with a number only, understood to be in nM.

Report IC50 under test system Xanthine oxidase (from bovine milk, Sigma) (Bos taurus (Bovine)) for N#Cc1cn(-c2ccc(C(=O)O)c(O)c2)c2cccc(O)c12 [Example 203] . 7.1

Report IC50 under test system Xanthine oxidase (from bovine milk, Sigma) (Bos taurus (Bovine)) for N#Cc1cn(-c2ccc(C(=O)O)c(O)c2)c2ccc(OCCO)cc12 [Example 210] . 7

Report IC50 under test system Xanthine oxidase (from bovine milk, Sigma) (Bos taurus (Bovine)) for CS(=O)(=O)NCCOc1ccc2c(C#N)cn(-c3ccc(C(=O)O)c(O)c3)c2c1 [Example 238] . 8.3

Report IC50 under test system Xanthine oxidase (from bovine milk, Sigma) (Bos taurus (Bovine)) for N#Cc1cn(-c2ccc(C(=O)O)c(O)c2)c2ccccc12 [Example 188] . 5

Report IC50 under test system Xanthine oxidase (from bovine milk, Sigma) (Bos taurus (Bovine)) for N#Cc1cn(-c2ccc(C(=O)O)cc2)c2ccc(C(=O)NCc3ccccc3)cc12 [Example 160] . 11.3

Report IC50 under test system Xanthine oxidase (from bovine milk, Sigma) (Bos taurus (Bovine)) for COc1ccc2c(C#N)cn(-c3ccc(C(=O)O)c(O)c3)c2c1 [Example 217] . 6

Report IC50 under test system Xanthine oxidase (from bovine milk, Sigma) (Bos taurus (Bovine)) for CN(C)CCCOc1ccc2c(C#N)cn(-c3ccc(C(=O)O)c(O)c3)c2c1 [Example 226] . 10

Report IC50 under test system Xanthine oxidase (from bovine milk, Sigma) (Bos taurus (Bovine)) for N#Cc1ccc2c(c1)c(C#N)cn2-c1ccc(C(=O)O)c(O)c1 [Example 206] . 7.2

Report IC50 under test system Xanthine oxidase (from bovine milk, Sigma) (Bos taurus (Bovine)) for CS(=O)(=O)c1ccc(COc2ccc3c(c2)c(C#N)cn3-c2ccc(C(=O)O)cc2)cc1 [Example 178] . 12.9

Report IC50 under test system Xanthine oxidase (from bovine milk, Sigma) (Bos taurus (Bovine)) for Cc1ccc2c(c1)c(C#N)cn2-c1nc(C)c(C(=O)O)s1 [Example 187] . 16.4

Report IC50 under test system Xanthine oxidase (from bovine milk, Sigma) (Bos taurus (Bovine)) for CC(=O)NCCCOc1ccc2c(C#N)cn(-c3ccc(C(=O)O)c(O)c3)c2c1 [Example 239] . 6.5

Report IC50 under test system Xanthine oxidase (from bovine milk, Sigma) (Bos taurus (Bovine)) for COCOc1cc(-n2cc(C#N)c3ccccc32)ccc1C(=O)O [Example 308] . 45

Report IC50 under test system Xanthine oxidase (from bovine milk, Sigma) (Bos taurus (Bovine)) for N#Cc1cn(-c2ccc(C(=O)O)cc2)c2cc(OCCO)ccc12 [Example 186] . 49.7

Report IC50 under test system Xanthine oxidase (from bovine milk, Sigma) (Bos taurus (Bovine)) for N#Cc1ccc2c(C#N)cn(-c3ccc(C(=O)O)c(O)c3)c2c1 [Example 207] . 7.3

Report IC50 under test system Xanthine oxidase (from bovine milk, Sigma) (Bos taurus (Bovine)) for CN(Cc1ccccc1)C(=O)c1ccc2c(c1)c(C#N)cn2-c1ccc(C(=O)O)cc1 [Example 161] . 49.8

Report IC50 under test system Xanthine oxidase (from bovine milk, Sigma) (Bos taurus (Bovine)) for N#Cc1cn(-c2ccc(C(=O)O)c(O)c2)c2cc(OCc3ccc(Cl)cc3)ccc12 [Example 232] . 42.5

Report IC50 under test system Xanthine oxidase (from bovine milk, Sigma) (Bos taurus (Bovine)) for CC(=O)c1ccc(-c2ccc3c(c2)c(C#N)cn3-c2ccc(C(=O)O)cc2)cc1 [Example 166] . 7.2

Report IC50 under test system Xanthine oxidase (from bovine milk, Sigma) (Bos taurus (Bovine)) for N#Cc1cn(-c2ccc(C(=O)O)cc2)c2ccc(/C=C/C(=O)O)cc12 [Example 17] . 12.1

Report IC50 under test system Xanthine oxidase (from bovine milk, Sigma) (Bos taurus (Bovine)) for N#Cc1cn(-c2ccc(C(=O)O)c(O)c2)c2ccc(OCC(=O)O)cc12 [Example 213] . 7.2

Report IC50 under test system Xanthine oxidase (from bovine milk, Sigma) (Bos taurus (Bovine)) for COc1cc2c(C#N)cn(-c3ccc(C(=O)O)cc3)c2cc1F [Example 287] . 16
